- Procedure Text: Bulk density determination of felbamate (10 ml graduated cylinder, 50 taps)
- Format: physicochemical
- Condition Parameters: Table I; U.S. Pat. No. 4,868,327
Measure Name: untapped bulk density (g/mL)
Answers are plain numbers, in g/mL.

Task item: Value lookup for untapped bulk density; key = NC(=O)OCC(COC(N)=O)c1ccccc1 [Felbamate, 2-phenyl-1,3-propanediol dicarbamate]
Reply: 0.14

====

- Procedure Text: Bulk density determination of felbamate (10 ml graduated cylinder, 50 taps)
- Type: physicochemical
- Condition Parameters: Table I; purification process as disclosed in Example 3
Measure Name: untapped bulk density
Don't forget the unit after the number, please.

Task item: Value lookup for untapped bulk density; key = NC(=O)OCC(COC(N)=O)c1ccccc1 [Felbamate, 2-phenyl-1,3-propanediol dicarbamate]
Reply: 0.35 g/mL

====

- Procedure Text: Bulk density determination of felbamate (10 ml graduated cylinder, 50 taps)
- Type: physicochemical
- Condition Parameters: Table I; purification process as disclosed in Example 3; 50 taps
Measure Name: tapped bulk density (g/mL)
One number for each entry, in g/mL.

Task item: Value lookup for tapped bulk density; key = NC(=O)OCC(COC(N)=O)c1ccccc1 [Felbamate, 2-phenyl-1,3-propanediol dicarbamate]
Reply: 0.55

====

- Procedure Text: Bulk density determination of felbamate (10 ml graduated cylinder, 50 taps)
- Type: physicochemical
- Condition Parameters: Table I; U.S. Pat. No. 4,868,327; 50 taps
- Description: One important characteristic is tapped bulk density, or simply tapped (or tap) density, that is the maximum packing density of a powder (or blend of powders) achieved under the influence of well defined, externally applied forces (see, http://en.wikipedia.org/wiki/Bulk_density). The minimum packed volume thus achieved depends on a number of factors including particle size distribution, true density, particle shape and cohesiveness due to surface forces including moisture. […]
Measure Name: tapped bulk density (g/mL)
Numbers only, in g/mL.

Task item: Value lookup for tapped bulk density; key = NC(=O)OCC(COC(N)=O)c1ccccc1 [Felbamate, 2-phenyl-1,3-propanediol dicarbamate]
Reply: 0.32
